Target: UniProt:P06767
Sequence (P06767 whole entry): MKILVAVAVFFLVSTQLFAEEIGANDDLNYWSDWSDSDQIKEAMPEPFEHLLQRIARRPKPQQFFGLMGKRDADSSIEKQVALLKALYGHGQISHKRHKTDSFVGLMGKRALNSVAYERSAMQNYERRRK
test.readout: Ki

Form field - read-out: Ki; system: UniProt:P06767; submitted item: Oc1cc2c(cc1O)[C@@H]1c3ccccc3CN[C@@H]1CC2
> 10 µM

* * *

Target: VIP peptides (Rattus norvegicus, UniProt P01283)
Sequence (P01283 whole entry): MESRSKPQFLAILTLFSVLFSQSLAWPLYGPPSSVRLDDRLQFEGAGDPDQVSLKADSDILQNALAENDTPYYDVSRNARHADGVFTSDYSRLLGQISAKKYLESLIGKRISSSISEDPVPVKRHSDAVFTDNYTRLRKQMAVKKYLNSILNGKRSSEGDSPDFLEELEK
test.readout: Ki

Consider the compound Oc1cc2c(cc1O)[C@@H]1c3ccccc3CN[C@@H]1CC2 and give its measured Ki.
> 10 µM

* * *

Molecular target: UniProt P07522
Sequence (P07522 974-1026 limits assumed): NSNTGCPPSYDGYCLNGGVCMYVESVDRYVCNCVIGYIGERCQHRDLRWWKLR
test.readout: Ki

Form field - read-out: Ki; system: UniProt P07522; submitted item: Oc1cc2c(cc1O)[C@@H]1c3ccccc3CN[C@@H]1CC2
> 10 µM

* * *

Target: 5-hydroxytryptamine receptor 2A (Rattus norvegicus, UniProt P14842)
Sequence (P14842 whole entry): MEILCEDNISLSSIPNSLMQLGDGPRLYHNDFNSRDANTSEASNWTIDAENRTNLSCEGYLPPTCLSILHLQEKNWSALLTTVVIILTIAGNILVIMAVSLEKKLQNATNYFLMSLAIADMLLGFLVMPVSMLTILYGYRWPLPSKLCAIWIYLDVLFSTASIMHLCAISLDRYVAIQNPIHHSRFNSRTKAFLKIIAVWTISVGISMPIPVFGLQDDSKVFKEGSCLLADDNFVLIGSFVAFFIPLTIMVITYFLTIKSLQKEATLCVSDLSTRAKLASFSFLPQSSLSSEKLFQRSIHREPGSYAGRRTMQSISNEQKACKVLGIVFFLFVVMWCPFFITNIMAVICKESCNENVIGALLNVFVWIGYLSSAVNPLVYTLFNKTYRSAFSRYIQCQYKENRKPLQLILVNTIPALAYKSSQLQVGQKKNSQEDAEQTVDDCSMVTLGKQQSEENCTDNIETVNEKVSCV
pKi: −log10 of the molar value.
test.readout: pKi

Consider the compound Oc1cc2c(cc1O)[C@@H]1c3ccccc3CN[C@@H]1CC2 and give its measured pKi.
< 5.00

* * *

Molecular target: Glutamate receptor ionotropic, NMDA 1 (Rattus norvegicus)
pKi: −log10 of the molar value.
test.readout: pKi

Form field - read-out: pKi; system: Glutamate receptor ionotropic, NMDA 1 (Rattus norvegicus); submitted item: Oc1cc2c(cc1O)[C@@H]1c3ccccc3CN[C@@H]1CC2
< 5.00

* * *

Biological target: Angiotensinogen (Rattus norvegicus)
Sequence (P01015 whole entry): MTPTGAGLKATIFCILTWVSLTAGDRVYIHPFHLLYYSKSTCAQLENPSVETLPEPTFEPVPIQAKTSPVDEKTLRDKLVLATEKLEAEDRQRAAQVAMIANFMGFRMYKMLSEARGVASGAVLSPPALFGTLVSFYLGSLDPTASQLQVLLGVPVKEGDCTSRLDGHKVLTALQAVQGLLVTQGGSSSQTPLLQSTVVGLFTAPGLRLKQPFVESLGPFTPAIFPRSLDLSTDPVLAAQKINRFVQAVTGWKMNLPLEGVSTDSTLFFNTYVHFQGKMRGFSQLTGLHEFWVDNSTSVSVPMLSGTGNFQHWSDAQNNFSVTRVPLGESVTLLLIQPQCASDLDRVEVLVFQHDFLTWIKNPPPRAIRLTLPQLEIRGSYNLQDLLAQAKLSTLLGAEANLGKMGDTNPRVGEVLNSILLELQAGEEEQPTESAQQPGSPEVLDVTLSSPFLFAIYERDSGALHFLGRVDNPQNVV
pKi: −log10 of the molar value.
test.readout: pKi

Form field - read-out: pKi; system: Angiotensinogen (Rattus norvegicus); submitted item: Oc1cc2c(cc1O)[C@@H]1c3ccccc3CN[C@@H]1CC2
< 5.00

* * *

Molecular target: Gamma-aminobutyric acid receptor subunit alpha-1 (Rattus norvegicus)
Sequence (P62813 whole entry): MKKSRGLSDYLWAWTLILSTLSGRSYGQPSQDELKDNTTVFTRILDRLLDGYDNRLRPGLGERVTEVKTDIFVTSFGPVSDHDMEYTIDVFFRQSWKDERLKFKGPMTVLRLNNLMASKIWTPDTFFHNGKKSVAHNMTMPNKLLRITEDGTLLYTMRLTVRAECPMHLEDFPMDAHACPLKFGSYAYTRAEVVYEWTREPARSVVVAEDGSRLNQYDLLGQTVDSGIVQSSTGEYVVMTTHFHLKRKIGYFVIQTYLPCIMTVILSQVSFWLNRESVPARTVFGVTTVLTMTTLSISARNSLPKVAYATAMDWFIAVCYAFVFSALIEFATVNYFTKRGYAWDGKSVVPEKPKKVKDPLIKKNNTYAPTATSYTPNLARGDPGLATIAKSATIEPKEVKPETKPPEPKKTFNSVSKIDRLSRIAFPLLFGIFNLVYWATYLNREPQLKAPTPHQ
test.readout: Ki

Consider the compound Oc1cc2c(cc1O)[C@@H]1c3ccccc3CN[C@@H]1CC2 and give its measured Ki.
> 10 µM

* * *

Target: Alpha-1A adrenergic receptor (Rattus norvegicus)
Sequence (P43140 whole entry): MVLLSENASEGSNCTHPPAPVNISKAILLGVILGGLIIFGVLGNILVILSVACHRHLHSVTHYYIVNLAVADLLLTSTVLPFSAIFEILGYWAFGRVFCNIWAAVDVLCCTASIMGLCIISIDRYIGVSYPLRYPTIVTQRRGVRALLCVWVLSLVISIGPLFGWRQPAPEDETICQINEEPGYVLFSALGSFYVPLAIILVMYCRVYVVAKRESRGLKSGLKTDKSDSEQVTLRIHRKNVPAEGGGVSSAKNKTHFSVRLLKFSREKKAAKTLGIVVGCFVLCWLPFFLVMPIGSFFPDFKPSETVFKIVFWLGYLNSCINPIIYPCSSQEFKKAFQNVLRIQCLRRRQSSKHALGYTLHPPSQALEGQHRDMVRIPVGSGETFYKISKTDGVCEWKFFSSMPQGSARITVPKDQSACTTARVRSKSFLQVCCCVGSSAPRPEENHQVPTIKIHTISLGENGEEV
pKi: −log10 of the molar value.
test.readout: pKi

Form field - read-out: pKi; system: Alpha-1A adrenergic receptor (Rattus norvegicus); submitted item: Oc1cc2c(cc1O)[C@@H]1c3ccccc3CN[C@@H]1CC2
< 5.00
